- measurement notes: method code SF-HPLC, from DOI: 10.1016/s0928-0987(98)00030-x, PMID: 9845810
- condition notes: pH 7.4
quantity name: logD

>>> df
                       chemical_structure  meas_value
0  Cc1ccc2c(c1)C(=O)N(CCO[N+](=O)[O-])CO2        2.41

----------
- measurement notes: method code SF-RC, from DOI: 10.1002/ps.2780300102
- condition notes: pH 1.0
Below is a list of entries, each paired with its recorded logD value.
quantity name: logD

>>> df
            chemical_structure  quantity_name  meas_value
0          O=C(O)Cc1ccc(Cl)cc1           logD         2.2
1  CS(=O)(=O)c1ccc(CC(=O)O)cc1           logD        0.06
